Values compiled from PubChem BioAssay (EPA / NIEHS).

Experimental protocol: ATG_BRE_CIS: Attagene CIS-FACTORIAL HepG2 Assay for human Bone Morphogenetic Protein (BMP) Response Element (BRE) (AID 2282933)
Study conditions: HepG2 BMP response element reporter, Attagene transcription factor profiling; actives raise or lower the signal
Active and inactive are the calls of the source. Rule for the calls: active = hit-call score of the fitted dose curve at least 0.9, where 1 is the maximum; inactive = score below 0.9.
Response enum: TRUE (active), FALSE (inactive)

// below: answered compounds
CNC(=O)Oc1cccc2ccccc12 :: TRUE
COCc1cnc(C2=NC(C)(C(C)C)C(=O)N2)c(C(=O)O)c1 (stereo unspecified) :: FALSE
CC(C)(C)C(=O)C(Oc1ccc(Cl)cc1)n1cncn1 (stereo unspecified) :: TRUE
Cc1c(COC(=O)[C@@H]2[C@H](/C=C(\Cl)C(F)(F)F)C2(C)C)cccc1-c1ccccc1 :: FALSE
CC(C)=CC1C(C(=O)OCc2coc(Cc3ccccc3)c2)C1(C)C (stereo unspecified) :: TRUE
CSC(=O)c1c(C(F)F)nc(C(F)(F)F)c(C(=O)SC)c1CC(C)C :: FALSE
CC(C)N1C(=O)N(c2ccccc2)CSC1=NC(C)(C)C :: FALSE
CCCN(CC)CC1COC2(CCC(C(C)(C)C)CC2)O1 (stereo unspecified) :: TRUE

Short answer needed: outcome of this test for "CCOP(=O)(OCC)Oc1nc(Cl)c(Cl)cc1Cl" ?
FALSE

Hello, I am checking results. What call was entered for "O=P(O)(O)CCCl" ?
FALSE

Can you look up the reported call for "CCOP(=S)(OCC)Oc1nc(Cl)n(C(C)C)n1" for me?
FALSE

Recorded call for "COP(=S)(OC)Oc1ccc([N+](=O)[O-])c(C)c1" ?
TRUE

Field: outcome | Entry: "Nc1c(Cl)c(Cl)nc(C(=O)O)c1Cl"
FALSE

Recorded test call requested for CCCCC(C#N)(Cn1cncn1)c1ccc(Cl)cc1 (stereo unspecified)
FALSE

Hi, do you know how "Clc1cccc(C(Cl)(Cl)Cl)n1" came out in this test?
FALSE

Per the records of this test, what outcome belongs to "COC(=O)N(C(=O)N1CO[C@@]2(C(=O)OC)Cc3cc(Cl)ccc3C2=N1)c1ccc(OC(F)(F)F)cc1" ?
TRUE

Hey, what did the test say about "CN/C(=N\[N+](=O)[O-])NCc1cnc(Cl)s1" ?
FALSE

Could you check what this test reported for CCOC(=O)C(C)OC(=O)c1cc(Oc2ccc(C(F)(F)F)cc2Cl)ccc1[N+](=O)[O-] (stereo unspecified) ?
TRUE

What call does the record list for CCC(C)n1c(=O)[nH]c(C)c(Br)c1=O (stereo unspecified) ?
FALSE

Each compound tested received a call. Report the one for CCCC(=NOCC)C1=C(O)CC(CC(C)SCC)CC1=O (stereo unspecified) .
FALSE

Just curious, what result did "CN=C=S" get here?
TRUE

Could you kindly confirm the outcome this assay logged for "Nc1c(Cl)c(F)nc(OCC(=O)O)c1Cl" ?
FALSE

Would you mind telling me which call this test gave "CC(C)Oc1cccc(NC(=O)c2ccccc2C(F)(F)F)c1" ?
TRUE

Tell me the assay call for "CO/N=C(/C1=NOCCO1)c1ccccc1Oc1ncnc(Oc2ccccc2Cl)c1F" please.
TRUE
